- testProtocol: chemical genetic growth profiling, strain panel (AID 1159580);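 note: tested at 20 µM; growth read once vehicle control cultures reached saturation at 30 °C; 1 = growth at the plate median or of vehicle wells; lower values mean less growth of the strain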
- settings: S. cerevisiae deletion strains, growth OD, locus YFR010W, strain ubp6, stronger effect = lower value
Hit rate of the full screen: of about 5,500 compounds, about 2,000 (36%) were called active. Another 18% or so got no clear call; they are omitted. Some of the results follow.
parameterMeasured: normalized growth
Quick one: just the number, no unit, thanks!

Inquiry: Would you kindly share the measured normalized growth for `CC(=O)[O][Hg][c]1ccccc1` ?
Reply text: 0.0677

Inquiry: Would you kindly share the measured normalized growth for CC(=O)OCC(=O)[C@@]1(O)CCC2C3CCC4=CC(=O)CC[C@]4(C)C3[C@@H](O)C[C@@]21C (stereo partly specified) ?
Reply text: 0.984

Inquiry: Would you kindly share the measured normalized growth for OC(c1cc(C(F)(F)F)nc2c(C(F)(F)F)cccc12)C1CCCCN1 (stereo unspecified) ?
Reply text: 1

Inquiry: Would you kindly share the measured normalized growth for C[C@]12CCC(=O)C=C1CCC1C2C(=O)C[C@@]2(C)C1CC[C@]2(O)C(=O)CO (stereo partly specified) ?
Reply text: 1

Inquiry: Would you kindly share the measured normalized growth for CC(NCCC(c1ccccc1)c1ccccc1)c1ccccc1 (stereo unspecified) ?
Reply text: 0.559

Inquiry: Would you kindly share the measured normalized growth for `O=c1c(O)c(-c2ccc(O)c(O)c2)oc2cc(O)ccc12` ?
Reply text: 0.96

* * *

- testProtocol: chemical genetic growth profiling, strain panel (AID 1159580);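 note: tested at 20 µM; growth read once vehicle control cultures reached saturation at 30 °C; 1 = growth at the plate median or of vehicle wells; lower values mean less growth of the strain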
- settings: S. cerevisiae deletion strains, growth OD, locus YNL271C, strain bni1
About 2,000 (36%) of roughly 5,500 compounds were called active. Another 18% or so got no clear call; they are omitted. Cut-off read from the data, not from the text of the source: active = normalized growth mostly below about 0.91 (no sharp cut-off); inconclusive = no clear call, values can overlap the other calls; inactive = mostly above about 0.92. Some of the results follow.
Return exactly one item of active, inactive

Inquiry: Called result for CCc1cccc2c3c([nH]c12)C(CC)(CC(=O)O)OCC3 (stereo unspecified)
Reply text: inactive

Inquiry: Called result for O=c1[nH]cnc2c1ncn2C1O[C@H](CO)[C@@H](O)[C@H]1O (stereo partly specified)
Reply text: inactive

Inquiry: Called result for CC(=O)O[C@@H]1CC[C@]2(C)C3CC[C@]4(C)C(=O)CCC4C3CC[C@H]2C1 (stereo partly specified)
Reply text: inactive

Inquiry: Called result for `O=C(CCc1ccc(O)cc1)c1c(O)cc(O)cc1O[C@@H]1O[C@H](CO)[C@@H](O)[C@H](O)[C@H]1O`
Reply text: inactive

Inquiry: Called result for `COc1ccc(C(=O)c2ccccc2)c(O)c1O`
Reply text: active

Inquiry: Called result for OC(c1cc(C(F)(F)F)nc2c(C(F)(F)F)cccc12)C1CCCCN1 (stereo unspecified)
Reply text: inactive

Inquiry: Called result for `CCOc1cccc(C(=O)c2ccc(O)c(O)c2O)c1`
Reply text: active

Inquiry: Called result for NC[C@H]1O[C@H](O[C@H]2C(O[C@@H]3O[C@H](CO)[C@@H](O)[C@H]3O)[C@@H](O)[C@H](N)C[C@@H]2N)[C@H](N)[C@@H](O)[C@@H]1O (stereo partly specified)
Reply text: inactive

Inquiry: Called result for `COc1ccc(C(=O)O)c(O)c1OC`
Reply text: inactive

Inquiry: Called result for `CO[C@@]1(NC(=O)Cc2cccs2)C(=O)N2C(C(=O)O)=C(COC(N)=O)CS[C@@H]21`
Reply text: inactive

Inquiry: Called result for CC(N)C(O)c1ccc(O)c(O)c1 (stereo unspecified)
Reply text: inactive

Inquiry: Called result for COc1cc2c(cc1OC)[C@@]13CCN4CC5=CCOC6CC(=O)N2C1[C@H]6[C@H]5C[C@H]43 (stereo partly specified)
Reply text: inactive

Inquiry: Called result for CC(=O)O[C@H]1CC[C@]2(C)C3CC[C@@]4(C)C(CC5O[C@@]6(CCC(C)CO6)[C@@H](C)C54)C3CC[C@H]2C1 (stereo partly specified)
Reply text: inactive

Inquiry: Called result for `COc1ccc(C2C(=O)c3ccccc3C2=O)cc1`
Reply text: inactive

Inquiry: Called result for `CC1(C)C=Cc2cc3ccc(=O)oc3cc2O1`
Reply text: inactive

Inquiry: Called result for `COc1ccc([C@H]2COc3c(ccc(O)c3OC)C2)c(OC)c1O`
Reply text: inactive
